B1: LINE1-mini (parent)
chain: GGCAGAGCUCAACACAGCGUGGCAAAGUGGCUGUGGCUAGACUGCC

- Variants of: B1
- procedure details: self-cleavage, relative activity (ratio to wild type); higher = more cleavage; in vitro, sequencing; the parent is a self-cleaving ribozyme
measured quantity: self-cleavage

Give the reported value of self-cleavage for this record: U32C G33U
0.13
